run.description: AML differentiation inducers, ER-HoxA9 marrow cells – cell-based, GFP/MAC1 double positive, flow cytometry, validation set, primary screen (AID 588685);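 note: compound exposure lasts four days before antibody staining and flow analysis; 0% = DMSO wells and 100% = 5 µM fulvestrant positive control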
measurement.parameters: stronger effect = higher value, normalized: vehicle 0, fulvestrant 100
Assign differentiation response to each entry below.
Numbers only, in %.

Example results:
C[C@]12CC[C@@H]3c4ccc(O)cc4CC[C@H]3[C@@H]1C[C@@H](O)[C@@H]2O[C@@H]1O[C@H](C(=O)O)[C@@H](O)[C@H](O)[C@H]1O = -4.91
Cc1ncoc1C(=O)N1CCCC(C(=O)c2ccc(-c3ccccc3)c(F)c2)C1 (configuration not stated) = 0.82
CC1CCCC(C)N1NC(=O)c1ccc(Cl)c(S(N)(=O)=O)c1 (configuration not stated) = -0.82
COc1ccc(C(=O)Nc2ccccc2C(=O)NC(Cc2c[nH]c3ccccc23)C(=O)O)cc1 (configuration not stated) = 22.7
O=C(O)c1ccc(C(=O)C(=O)c2ccccc2)cc1 = -6.6
CCC(=O)O[C@]1(C(=O)CCl)[C@@H](C)C[C@H]2[C@@H]3CCC4=CC(=O)C=C[C@]4(C)[C@@]3(F)[C@@H](O)C[C@@]21C = -13.3
CC(=O)c1c(C)c(C)c2n1CCn1c(C)ccc1-2 = -5.97
COc1ccc(C(C)N2CC34C=CC(O3)C(C(=O)OCC(C)C)C4C2=O)cc1 (configuration not stated) = -8.55
Cc1oc2c(O)c(O)ccc2c(=O)c1-c1ccccc1 = -2.46
Cc1ccc(N2C(=O)c3ccccc3C2=O)cc1C = -3.11

List reported differentiation response for each of these molecules:
1. CSCC[C@H](NC(=O)NC1CCCC1)C(=O)O
2. COc1ccc2c(c1)c(=O)oc1cc3occ(C(C)(C)C)c3cc12
3. CCCCCCCCCC(=O)OCC(O)CO (configuration not stated)
4. COC(=O)CN1C(=S)N(c2ccc(F)cc2)C(=O)C1CC(=O)Nc1ccccc1 (configuration not stated)
5. O=C(/C=C/c1ccc2c(c1)OCCCO2)c1ccc2ccccc2c1O
6. O=C(Cc1ccccc1)NNC(=O)Cc1ccccc1

A:
[0.82, -14.8, 9.04, -10.9, -7.94, 24.7]

List reported differentiation response for each of these molecules:
1. CCCNCC(O)COc1ccccc1C(=O)CCc1ccccc1 (configuration not stated)
2. Cc1nnc(NS(=O)(=O)c2ccc(N)cc2)s1
3. COC(=O)c1ccc2c(c1)C(=O)/C(=C/c1ccc(O)cc1)O2

A:
-0.73
0
-26.4

List reported differentiation response for each of these molecules:
1. CCCCN1C[C@H](O)[C@@H](O)[C@H](O)[C@H]1CO
2. Cc1cccc(Oc2coc3cc(OC(=O)c4cncc(Br)c4)ccc3c2=O)c1
3. Cc1cc(O)c(C(C)C)cc1C1(c2cc(C(C)C)c(O)cc2C)OC(=O)c2ccccc21

A:
0.92
10.4
15.7
